test: Compound solubility in water
Label scheme for solubility: lower than 10 µg/mL is FALSE, 10 µg/mL and above is TRUE.

CCCCNC(=O)n1cnc2ccccc21    TRUE

Does solubility meet or surpass 10 µg/mL for COc1nc2ccc(N3CCC4(CC3)COC4)cc2n1C(=O)NCCCc1ccccc1 [Example 238a] ?
TRUE

Follow-up entry: CC(C)CCNC(=O)n1cnc2c(N3CC4CCC(C3)N4C)cccc21
TRUE

Follow-up entry: CCCCNC(=O)n1cnc2cc(N3CCC(N4CCOCC4)CC3)ccc21 [Example 101b]
FALSE

Follow-up entry: O=C(NCCOc1ccccc1)n1cnc2cc(C(F)(F)F)ccc21 [Example 46a]
FALSE

Follow-up entry: C[C@H](CCNC(=O)n1cnc2c(N3CCN(C)CC3)cccc21)c1ccccc1 [Example 253b]
TRUE

Follow-up entry: CCCCNC(=O)n1cnc2ccc(N3CCC(N4CCN(C)CC4)CC3)cc21 [Example 102a]
TRUE

Follow-up entry: COCCOc1nc2ccc(N3CCOCC3)cc2n1C(=O)NCCCc1ccccc1 [Example 190b]
TRUE

Follow-up entry: COc1nc2cc(N3CCN(C(C)=O)CC3)ccc2n1C(=O)NCCCc1ccccc1 [Example 236a]
TRUE

Follow-up entry: CN1CCC(c2cccc3c2ncn3C(=O)NCCOc2ccccc2)CC1
TRUE

Follow-up entry: CCCN1CCN(c2cccc3c2ncn3C(=O)NCCC(C)C)CC1
TRUE

Follow-up entry: COc1nc2ccc(-c3cncnc3)cc2n1C(=O)NCCC(C)C
TRUE

Follow-up entry: O=C(NCCc1ccccc1)n1cnc2ccc(C(F)(F)F)cc21 [Example 26b]
FALSE

---

target: acid ceramidase (Homo sapiens); construct: Cell lysates overexpressing acid ceramidase were used as the enzyme source; expressed in transfected cells; experiment: Acid ceramidase inhibition, biochemical fluorescent assay with cell lysates overexpressing acid ceramidase, substrate Rbm14-12; conditions: substrate Rbm14-12 6.3 μM, pH 4.5, 1 hr preincubation at RT
pIC50: −log10 of the molar value.
Listed here are compounds together with their documented pIC50.

For orientation, consider the following solved cases.
Cc1ccc(CCNC(=O)n2cnc3ccccc32)cc1    > 6.70
COc1cccc2c1ncn2C(=O)NCCC1CC1    6.00 to 6.70
O=C(NCCc1ccccc1)n1cnc2cc(N3CCOCC3)ccc21 [Example 14a]    > 6.70

// pIC50 lookup, key: CCCCNC(=O)n1cnc2c(C3CCN(C)CC3)c(C(F)(F)F)ccc21
< 6.00

Follow-up entry: COc1nc2ccccc2n1C(=O)NCCc1ccccc1
> 6.70

Follow-up entry: O=C(NCCCCc1ccccc1)n1cnc2ccccc21
> 6.70

Follow-up entry: CN1CCN(C2CN(c3cccc4c3ncn4C(=O)NCCc3ccccc3)C2)CC1
6.00 to 6.70

Follow-up entry: CN1CCN(C2CN(c3cccc4c3ncn4C(=O)NCC(C)(C)Oc3ccccc3)C2)CC1
> 6.70

---

Target: acid ceramidase (Homo sapiens, UniProt Q13510)
Construct: Cell lysates overexpressing acid ceramidase were used as the enzyme source; expressed in transfected cells
Sequence (Q13510 22-395): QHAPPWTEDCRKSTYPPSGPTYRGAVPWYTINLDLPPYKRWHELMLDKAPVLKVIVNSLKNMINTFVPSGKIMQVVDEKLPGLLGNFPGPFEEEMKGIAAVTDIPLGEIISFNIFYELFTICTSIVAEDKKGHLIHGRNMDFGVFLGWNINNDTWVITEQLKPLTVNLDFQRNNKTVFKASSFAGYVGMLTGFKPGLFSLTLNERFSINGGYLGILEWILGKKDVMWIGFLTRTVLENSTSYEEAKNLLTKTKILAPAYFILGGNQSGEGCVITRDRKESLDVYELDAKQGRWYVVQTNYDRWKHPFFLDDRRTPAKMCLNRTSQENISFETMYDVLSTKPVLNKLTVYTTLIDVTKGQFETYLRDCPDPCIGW
Experiment: Acid ceramidase inhibition, biochemical fluorescent assay with cell lysates overexpressing acid ceramidase, substrate Rbm14-12
Settings: substrate Rbm14-12 6.3 μM, pH 4.5, 1 hr preincubation at RT
Listed here are compounds together with their documented IC50.

For orientation, consider the following solved cases.
CN1CCN(c2cccc3c2ncn3C(=O)NCC#Cc2ccccc2F)CC1    < 200 nM
CC(C)CCNC(=O)n1c(=O)n(C)c2cccnc21    200 to 1000 nM
COc1nc2c(C#N)cccc2n1C(=O)NCCCCc1ccccc1    < 200 nM
CSc1nc2cc(-c3cccnc3)cnc2n1C(=O)NCC(C)C    200 to 1000 nM
CN1CCN(c2cccc3c2ncn3C(=O)NCc2ccn3cccc3c2)CC1    < 200 nM

// IC50 lookup, key: CC(C)CCNC(=O)n1cnc2c(N3CC4CC3CN4C)cccc21 (centres unmarked)
200 to 1000 nM

Follow-up entry: CC(C)CCNC(=O)n1cnc2c(N3CCCCC3)cccc21
200 to 1000 nM

---

assay: Compound solubility in water
Listed here are compounds together with their documented solubility.
Value expressed in µg/mL; do not type the unit.

For orientation, consider the following solved cases.
COc1nc2cc(F)c(N3CCOCC3)cc2n1C(=O)NCC#CC(C)C [Example 321b]    3
COc1nc2c(N3CCN(C)CC3)cccc2n1C(=O)NCC#Cc1ccccc1    22
CC(C)CCNC(=O)n1cnc2c(N3CCOCC3)cc(C#N)cc21    10
CC(C)CCNC(=O)n1cnc2c(N3CCN(CCC#N)CC3)cccc21    30
O=C(NCCc1ccccc1)n1cnc2ccccc21    8

// solubility lookup, key: CCCCNC(=O)n1c(OC(C)C)nc2ccccc21
10.3

Follow-up entry: N#Cc1cc(N2CCOCC2)c2ncn(C(=O)NCCCC3CC3)c2c1
2

Follow-up entry: CN1[C@@H]2CC[C@H]1CN(c1cccc3c1ncn3C(=O)NCCCc1ccccc1)C2
28

Follow-up entry: COc1nc2cc(N3CCOCC3)ccc2n1C(=O)NCCc1ccccc1 [Example 29b]
3.6

---

test: Compound solubility in water
Measured attribute: solubility

CC(C)CCNC(=O)n1cnc2c(N3CCCCC3)cccc21    2 µg/mL
COc1cc(C2CCN(C)CC2)c2ncn(C(=O)NCCCCc3ccccc3)c2c1    21 µg/mL
CC(C)CCNC(=O)n1cnc2c(N3CCN(C)CC3)cccc21    23 µg/mL

// solubility lookup, key: CN(C)CC1CN(c2cccc3c2ncn3C(=O)NCC#Cc2ccccc2)C1
22 µg/mL

Follow-up entry: CN1CCC(c2cccc3c2ncn3C(=O)NCCCc2ccccc2)CC1
23.2 µg/mL

Follow-up entry: COc1cccc2c1ncn2C(=O)NCCOc1ccccc1
9.1 µg/mL

Follow-up entry: CC(C)CCNC(=O)n1cnc2c(N3CCC4(CC3)COC4)cccc21
18 µg/mL

---

assay: Compound solubility in water
Listed here are compounds together with their documented solubility.

COc1nc2ccc(N3CCOCC3)cc2n1C(=O)NCC1(CC2CC2)CC1 [Example 229a]    1 µg/mL
CC(C)Oc1nc2ccccc2n1C(=O)NCCc1ccccc1    0.7 µg/mL

// solubility lookup, key: CC(C)C#CCNC(=O)n1cnc2c(N3CCN(C4COC4)CC3)cccc21
20 µg/mL

Follow-up entry: CN1CCN(c2cccc3c2ncn3C(=O)NCC#CCC2(C(F)(F)F)CC2)CC1
22 µg/mL

Follow-up entry: CN1CCN(c2cccc3c2ncn3C(=O)NCC#CCC2CC2)CC1
30 µg/mL

Follow-up entry: COc1nc2cc(N3CCOCC3)ccc2n1C(=O)NCCCc1ccccc1 [Example 134b]
16 µg/mL

Follow-up entry: CC(C)C#CCNC(=O)n1cnc2c(N3CCC4CN(C)CC4CC3)cccc21 (stereo not drawn)
24 µg/mL

Follow-up entry: COc1c(-c2cncnc2)ccc2c1ncn2C(=O)NCC(C)C
27 µg/mL

Follow-up entry: CC(C)CCNC(=O)n1cnc2c(N3CCO[C@@H](Cc4ccccc4)C3)cccc21
1 µg/mL

---

Target: acid ceramidase (Homo sapiens, UniProt Q13510)
Construct: Cell lysates overexpressing acid ceramidase were used as the enzyme source; expressed in transfected cells
Sequence (Q13510 22-395): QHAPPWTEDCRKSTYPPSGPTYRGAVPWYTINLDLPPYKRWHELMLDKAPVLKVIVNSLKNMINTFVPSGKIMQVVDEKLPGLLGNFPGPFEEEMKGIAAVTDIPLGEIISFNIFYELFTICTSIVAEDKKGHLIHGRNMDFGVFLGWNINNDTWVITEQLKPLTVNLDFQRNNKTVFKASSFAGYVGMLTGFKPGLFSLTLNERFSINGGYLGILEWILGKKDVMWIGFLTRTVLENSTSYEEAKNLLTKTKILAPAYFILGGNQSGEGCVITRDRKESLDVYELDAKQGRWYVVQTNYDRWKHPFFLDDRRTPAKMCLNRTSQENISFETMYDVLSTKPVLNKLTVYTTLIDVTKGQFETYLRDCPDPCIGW
Assay: Acid ceramidase inhibition, biochemical fluorescent assay with cell lysates overexpressing acid ceramidase, substrate Rbm14-12
Conditions: substrate Rbm14-12 6.3 μM, pH 4.5
pIC50: −log10 of the molar value.
Measured attribute: pIC50

For orientation, consider the following solved cases.
O=C(NCCCc1ccccc1)n1cnc2c(CCCN3CCC3)cccc21    > 6.70
CC(C)(C)CCNC(=O)n1cnc2c(N3CCN(C4CC4)CC3)cccc21    6.00 to 6.70
N#Cc1cc(N2CCOCC2)c2ncn(C(=O)NCCCC3CC3)c2c1    > 6.70
COCCOc1nc2ccccc2n1C(=O)NCCCc1ccccc1    > 6.70
CN1C[C@@H]2C[C@H]1CN2c1cccc2c1ncn2C(=O)NCCCc1ccccc1    > 6.70
COCCOc1nc2ccc(N3CCOCC3)cc2n1C(=O)NCCCc1ccccc1 [Example 190b]    > 6.70

// pIC50 lookup, key: CC(C)C#CCCNC(=O)n1cnc2c(N3CCN(C)CC3)cccc21
6.00 to 6.70

Follow-up entry: CC(C)CCNC(=O)n1cnc2c(N3C[C@H](C)O[C@@H](C)C3)cccc21 (stereo in doubt)
6.00 to 6.70

Follow-up entry: CC(C)CCNC(=O)n1cnc2c(N3CCC4(CC3)COC4)cccc21
6.00 to 6.70

Follow-up entry: CN1CCN(C2CN(c3cccc4c3ncn4C(=O)NCCCc3ccccc3)C2)CC1
> 6.70

Follow-up entry: CC(C)C#CCNC(=O)n1cnc2c(N3CC4CC3CN4C)cccc21 (centres unmarked)
6.00 to 6.70

Follow-up entry: CN1CCC(c2cccc3c2ncn3C(=O)NCCCc2ccccc2)C1 (centres unmarked)
> 6.70

Follow-up entry: COc1nc2c(N3CCOCC3)cncc2n1C(=O)NCCC(C)C
> 6.70

Follow-up entry: CN(C)CC1CN(c2cccc3c2ncn3C(=O)NCCCc2ccccc2)C1
> 6.70

Follow-up entry: CN1CCN(C2CN(c3cccc4c3ncn4C(=O)NCC#Cc3ccccc3)C2)CC1
> 6.70

Follow-up entry: N#CCCN1CCN(c2cccc3c2ncn3C(=O)NCCC2CCC(F)(F)C2)CC1 (centres unmarked)
6.00 to 6.70

Follow-up entry: COc1nc2cc(N3CCOCC3)c(F)cc2n1C(=O)NCC#CC(C)C [Example 321a]
6.00 to 6.70

Follow-up entry: COc1nc2cc(N3CCN(C(C)=O)CC3)ccc2n1C(=O)NCCCc1ccccc1 [Example 236a]
> 6.70

Follow-up entry: CC(C)CCNC(=O)n1cnc2c(N3CCN4C(=O)CCC4C3)cccc21 (centres unmarked)
6.00 to 6.70

Follow-up entry: CN1C2CC1CN(c1cccc3c1ncn3C(=O)NCCCc1ccccc1)C2
> 6.70

Follow-up entry: CN(C)CC1CN(c2cccc3c2ncn3C(=O)NCC#Cc2ccccc2)C1
> 6.70

Follow-up entry: CN1CC(N2CCN(c3cccc4c3ncn4C(=O)NCCCc3ccccc3)CC2)C1
> 6.70

Follow-up entry: CN1CC2CC1CN2c1cccc2c1ncn2C(=O)NCCOc1ccccc1 (centres unmarked)
> 6.70

Follow-up entry: CN(C)C1CCN(c2cccc3c2ncn3C(=O)NCCCc2ccccc2)C1 (centres unmarked)
> 6.70

Follow-up entry: COc1nc2cc(N3CCOCC3)ccc2n1C(=O)NCCCc1ccco1 [Example 228b]
6.00 to 6.70
